Please go through the items and note down their % binding (EMAX) vs WT MET ECD.
molecular target: human MET ECD mutant H (mutations 2, 4) (human) (UniProt P08581); experiment: ELISA, WT or mutant hMET ECD coated
State just the number; it will be interpreted in %.

% binding (EMAX) vs WT MET ECD measured on 71A3 chimeric llama-human IgG1 mAb (antibody, V domains shown, human IgG1 CH1-CH2-CH3 and human CL lambda) VH: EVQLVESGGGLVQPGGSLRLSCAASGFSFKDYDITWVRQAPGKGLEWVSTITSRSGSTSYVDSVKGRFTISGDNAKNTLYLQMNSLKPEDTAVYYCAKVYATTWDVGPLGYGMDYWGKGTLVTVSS VL: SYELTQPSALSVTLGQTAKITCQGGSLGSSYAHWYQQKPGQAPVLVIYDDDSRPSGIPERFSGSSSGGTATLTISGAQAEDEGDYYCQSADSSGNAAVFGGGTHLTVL = 76.7

% binding (EMAX) vs WT MET ECD measured on 71D6 chimeric llama-human IgG1 mAb (antibody, V domains shown, human IgG1 CH1-CH2-CH3 and human CL lambda; also called 71D6 Human IgG1/lambda) VH: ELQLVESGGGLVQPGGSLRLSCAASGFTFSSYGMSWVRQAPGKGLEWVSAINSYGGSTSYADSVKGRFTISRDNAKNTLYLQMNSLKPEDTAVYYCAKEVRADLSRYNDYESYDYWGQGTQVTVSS VL: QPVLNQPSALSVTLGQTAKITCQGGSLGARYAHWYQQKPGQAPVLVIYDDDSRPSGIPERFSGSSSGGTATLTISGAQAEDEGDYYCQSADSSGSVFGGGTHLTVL = 38.6
